- Tested on: Cdk1 phosphorylated on tyrosine 15
- procedure-details: High-content imaging of pCdk1 Y15 by immunofluorescence in ACHN cells
- Type: cell-based
- condition-notes: Homo sapiens, high-content imaging (IF), 4 h, 7 to 5000 nM, read-out: CDK1 Tyr15 Phosphorylation EC50 (IC50)
pEC50: −log10 of the molar value.
observation-type: pEC50

Q: For the compound COc1nc(Nc2ccc3c(cnn3C3CCN(C)CC3)c2)ncc1C(=O)Nc1c(Cl)cccc1Cl , give its reported pEC50.
A: 6.30 to 7.00

Q: For the compound COc1nc(Nc2ccc(OCCN(C)C)c(C)c2)ncc1C(=O)Nc1c(Cl)cccc1Cl , give its reported pEC50.
A: 6.30 to 7.00

Q: For the compound COc1nc(Nc2ccc(C3CCN(C)CC3)c(C)c2)ncc1C(=O)Nc1c(C)ccc2[nH]ncc12 , give its reported pEC50.
A: 6.30 to 7.00

Q: For the compound Cc1cc(Nc2ncc(C(=O)Nc3c(Cl)cccc3Cl)c(OC3CC3)n2)ccc1C1CCN(C)CC1 , give its reported pEC50.
A: 6.30 to 7.00

Q: For the compound CN1CCN(c2ccc(Nc3ncc(C(=O)Nc4c(Cl)cccc4Cl)c(OCC4CCCO4)n3)cc2)CC1 (stereo not shown) , give its reported pEC50.
A: < 6.00

Q: For the compound COc1nc(Nc2ccc(OCCCN3CCOCC3)c(C)c2)ncc1C(=O)Nc1c(Cl)cccc1Cl , give its reported pEC50.
A: < 6.00

Q: For the compound COc1nc(Nc2ccc(C3CCNCC3)c(C)c2)ncc1C(=O)Nc1c(Cl)cccc1Cl , give its reported pEC50.
A: ≥ 7.00

Q: For the compound COc1cccc(Cl)c1NC(=O)c1cnc(Nc2ccc(C3CCN(C)CC3)c(C)c2)nc1OC , give its reported pEC50.
A: < 6.00

Q: For the compound COc1nc(Nc2ccc(O[C@@H]3CCN(C)C3)c(C)c2)ncc1C(=O)Nc1c(Cl)cccc1Br , give its reported pEC50.
A: 6.30 to 7.00

Q: For the compound COc1nc(Nc2ccc(C3CCN(C)CC3)c(C)c2)ncc1C(=O)Nc1c(F)cccc1Br , give its reported pEC50.
A: 6.30 to 7.00

Q: For the compound COc1nc(Nc2cc(C)c(N3CCC(N(C)C)CC3)c(F)c2)ncc1C(=O)Nc1c(Cl)cccc1Br , give its reported pEC50.
A: 6.30 to 7.00

Q: For the compound COc1nc(Nc2cnn(C)c2)ncc1C(=O)Nc1c(C)ccc(O)c1C , give its reported pEC50.
A: < 6.00

Q: For the compound CCOc1nc(Nc2ccc(OC3CCN(C)CC3)c(C)c2)ncc1C(=O)Nc1c(Cl)cccc1Br , give its reported pEC50.
A: 6.30 to 7.00

Q: For the compound COc1nc(Nc2cnn(C)c2)ncc1C(=O)Nc1c(Cl)ccc(O)c1Cl , give its reported pEC50.
A: < 6.00

Q: For the compound COc1nc(Nc2ccc([C@H]3CCN(C)C3)c(C)c2)ncc1C(=O)Nc1c(Cl)cccc1Br , give its reported pEC50.
A: 6.30 to 7.00

Q: For the compound COc1nc(Nc2ccc(N3CCN(C)CCC3=O)cc2)ncc1C(=O)Nc1c(Cl)cccc1Cl , give its reported pEC50.
A: 6.30 to 7.00
